I'd be grateful if you could share measured Activity for these entries.
target_of_assay: Bombesin receptor subtype-3 (Rattus norvegicus) (UniProt Q8K418)
Sequence (whole entry): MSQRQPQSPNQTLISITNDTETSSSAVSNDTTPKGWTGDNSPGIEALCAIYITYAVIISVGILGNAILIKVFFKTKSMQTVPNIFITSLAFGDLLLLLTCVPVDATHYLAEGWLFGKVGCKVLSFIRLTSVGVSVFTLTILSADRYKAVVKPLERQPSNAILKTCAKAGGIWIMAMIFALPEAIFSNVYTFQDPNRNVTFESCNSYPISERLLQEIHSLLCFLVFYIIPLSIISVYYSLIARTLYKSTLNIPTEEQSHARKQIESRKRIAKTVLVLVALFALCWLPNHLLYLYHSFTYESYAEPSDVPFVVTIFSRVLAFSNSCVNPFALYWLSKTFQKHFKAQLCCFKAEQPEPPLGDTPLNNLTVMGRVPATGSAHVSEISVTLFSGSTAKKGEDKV
protocol_text: Agonist activity at rat BRS3 expressed in HEK293AEQ cells after 10 mins by aequorin bioluminescence assay relative to dY-peptide
Assay type: functional, cell-based
Set-up: concentration or dose not given beside the values
One number for each entry, in %.

Check out these entries, answers already filled in.
compound_structure_string: CC(=O)n1nc(N)c2c3c(c(N4CCCCC4)nc21)CN(Cc1ccccc1)CC3
Activity / %: 108
//
compound_structure_string: Nc1n[nH]c2nc(N3CCCCC3)c3c(c12)CCN(Cc1ccccc1)C3
Activity / %: 105
//
compound_structure_string: CC(C)C(=O)Nc1n[nH]c2nc(N3CCCCC3)c3c(c12)CCN(Cc1ccccc1)C3
Activity / %: 102
//
compound_structure_string: Nc1n[nH]c2nc(N3CCCCC3)c3c(c12)CCN(CC1CCCCC1)C3
Activity / %: 49
//
compound_structure_string: Nc1n[nH]c2nc(N3CCCCC3)c3c(c12)CCN(Cc1cccc(C(F)(F)F)c1)C3
Activity / %: 38

Each molecule below has a reported value. Please supply its Activity.
1. Nc1n[nH]c2nc(N3CCCCCCC3)c3c(c12)CCN(Cc1ccccc1)C3
2. CCC(C)(C)C(=O)Nc1n[nH]c2nc(N3CCCCC3)c3c(c12)CCN(Cc1ccccc1)C3
3. Nc1n[nH]c2nc(N3CCC(F)CC3)c3c(c12)CCN(Cc1ccccc1)C3
4. Nc1n[nH]c2nc(N3CCOCC3)c3c(c12)CCN(Cc1ccccc1)C3
5. Nc1n[nH]c2nc(N3CCCCC3)c3c(c12)CCN(Cc1ccc(F)cc1)C3
6. CC(C)Nc1nc2[nH]nc(N)c2c2c1CN(Cc1ccccc1)CC2
7. Cn1nc(N)c2c3c(c(N4CCCCC4)nc21)CN(Cc1ccccc1)CC3

A:
[51, 96, 96, 82, 64, 55, 73]

Each molecule below has a reported value. Please supply its Activity.
1. Nc1n[nH]c2nc(N3CCCC3)c3c(c12)CCN(Cc1ccccc1)C3
2. CC(C)(C)C(=O)Nc1n[nH]c2nc(N3CCCCC3)c3c(c12)CCN(Cc1ccccc1)C3

A:
[99, 105]

meta.source: ChEMBL document CHEMBL1157936
